# assay overview: Pharmacokinetics after multiple oral administrations to psoriatic patients for 28 days
# Type: in vivo, human
# condition: human, blood; 5 mg q.d. oral, Day 1, Mean ± SD
measured property: Cmax at 24 h (ng/mL)
Answers are plain numbers, in ng/mL.

Entry CC[C@@H]1/C=C(\C)C[C@H](C)C[C@H](OC)[C@H]2O[C@@](O)(C(=O)C(=O)N3CCCC[C@H]3C(=O)O[C@H](/C(C)=C/[C@@H]3CC[C@H](Cl)[C@H](OC)C3)[C@H](C)[C@@H](O)CC1=O)[C@H](C)C[C@@H]2OC [pimecrolimus, 33-epichloro-33-desoxy-ascomycin] , Cmax at 24 h reported as 8.7

* * *

# assay overview: Pharmacokinetics after multiple oral administrations to psoriatic patients for 28 days
# Format: in vivo, human
# condition: human, blood; psoriatic patients, oral; read-out: AUC(0-24) associated with a significant clinical response in the target epithelial tissue
measured property: AUC(0-t) at 24 h

// CC[C@@H]1/C=C(\C)C[C@H](C)C[C@H](OC)[C@H]2O[C@@](O)(C(=O)C(=O)N3CCCC[C@H]3C(=O)O[C@H](/C(C)=C/[C@@H]3CC[C@H](Cl)[C@H](OC)C3)[C@H](C)[C@@H](O)CC1=O)[C@H](C)C[C@@H]2OC [pimecrolimus, 33-epichloro-33-desoxy-ascomycin] : AUC(0-t) at 24 h value = ≥ 400 ng·h/mL

* * *

# assay overview: Pharmacokinetics after multiple oral administrations to psoriatic patients for 28 days
# Type: in vivo, human
# condition: human, blood; 20 mg q.d. oral, Day 28, Mean ± SD
measured property: Cmax at 672 h (µg/mL)
One number for each entry, in µg/mL.

Sure, the documented Cmax at 672 h for CC[C@@H]1/C=C(\C)C[C@H](C)C[C@H](OC)[C@H]2O[C@@](O)(C(=O)C(=O)N3CCCC[C@H]3C(=O)O[C@H](/C(C)=C/[C@@H]3CC[C@H](Cl)[C@H](OC)C3)[C@H](C)[C@@H](O)CC1=O)[C@H](C)C[C@@H]2OC [pimecrolimus, 33-epichloro-33-desoxy-ascomycin] is 0.0583
